# MEASUREMENT NOTES: label from the status in PepcDB records
MEASURE NAME: protein production

[[record]]
sequence_entry = "MAAPEAEVLSSAAVPDLEWYEKSEETHASQIELLETSSTQEPLNASEAFCPRDCMVPVVFPGPVSQEGCCQFTCELLKHIMYQRQQLPLPYEQLKHFYRKPSPQAEEMLKKKPRATTEVSSRKCQQALAELESVLSHLEDFFARTLVPRVLILLGGNALSPKEFYELDLSLLAPYSVDQSLSTAACLRRLFRAIFMADAFSELQAPPLMGTVVMAQGHRNCGEDWFRPKLNYRVPSRGHKLTVTLSCGRPSIRTTAWEDYIWFQAPVTFKGFRE"
value_reported = "not failed"

[[record]]
sequence_entry = "MNLSKFPVYVQAAILALVLALVGYLVAQALQFSLKAEVIFAVGLAIGGFVVPLFLNRAPAGVAELASSQETCTLYVGNLPYRANEIAVRELFAEQGQVISVRLMKDKATGKRRGFGFVEMPAADAAKAIAALNDKEYQQRTLKVREANDKRDKDEREGSEVDA"
value_reported = "failed"

[[record]]
sequence_entry = "MNQVEMTEFPVGKPQEALYGVASTPDGALWFTLAKGNAIGRLSPDGAVSRFPLPHADGQPTTITCGPDGRPWFTLSSANAIGRLAPDGALRMFELPRPASRPFGIAGGHDGCLWFAEMAGDRIGRITIDGDIEEYDLPVKGGYPSCMAAGRDGLMWFTLNQAGAVGSISATAAPRIFPLGAADAAPVGIASDAQGALWIAQAGNGAIARFDAGGRITEFPLHSRAARPHAIAADAAGNLWFTEWGANRIGRISEAGDLAGYELAAPGSEPHGIAIDPHGCVWAALETGRLVRLQASPRDLEHHHHHH"
value_reported = "failed"

[[record]]
sequence_entry = "MTDLSARDRLAPDSSPRLLALASIALEAGALARQSLRRRHVDQMVSKGPRDYQTEIDVAVERLIVAGVSEAFPDHAIQGEEETGNRTGGPDAPVIYIDPIDGTTNFAWGLPHFGMTIAIAEQGKITCGVVYDSMLDELFSAEIGKGATLNGEKLRCADVADVQNVLVGAGLPVPGQVKSVDEELYHRALRRLMDNTAGVRRLGSAALSIAYVACGRLDGFFEDGLQVHDYGAAALILTEAGGVVTGFGGMPVDAGGGILAASPALHPWLLAGFQPGMDR"
value_reported = "failed"

[[record]]
sequence_entry = "NAKAESVSSGEFNRLRLALLALEARHSKRLGVLILDEIDSNLSGEESEGVARVLQELSRSYQILAISHQPHMPSYAHRHFLVKKEAKGSTIERLDRE"
value_reported = "failed"


Which protein production value belongs to MNHWSMPPNPEKALMLAQRAVAVFVYDAVRLEGINFTLPEVQTLLQGVTVGGHRLSDQQIAVNQGEAWKLLFQMIRDGRFELTPDCAMALHGVAAKEEALEWGCFRSGSVLIAGTEYEPPAASELPTRFDRMIDELQHMDDVHDQAVHLFLTMARCQFFYDVNKRMGRFMMNGHLLSNGYPAINIPASSQLEFNELMLRFYDSGDQREMNAFVRSCMDERVVLIMKEELEHHHHHH ?
failed

Which protein production value belongs to MLTVRNHPGVMSHICGLFARRAFNVDGILCMPLAGGEESRIWLQVLDDQRLQQMISQLEKLEDVLQVCRFDSEMPIFDQVEDLVAHQR ?
not failed
